molecular target: Apelin receptor (Homo sapiens, UniProt P35414); assay: [35S]GTPgammaS Binding: The human APJ receptor was cloned by polymerase chain reaction and the gene encoding the receptor was subcloned in pFLAG-CMV-3 expression vector (Sigma, Saint Louis, Mo. USA) in-house at Amgen. A GTPγS binding assay was performed on membranes prepared from CHO cells stably expressing human APJ receptor. The optimum experimental conditions for the concentrations of GDP, MgCl2, and NaCl in the assay buffer were initially determined. The assay was performed in assay buffer [20 mM HEPES, pH 7.5, 5 mM MgCl2, and 0.1% (w/v) BSA with 200 mM NaCl, 3 μM GDP] and membranes expressing human APJ receptor/well along with WGA PS beads. The reaction was initiated by addition of 0.2 nM [35S]GTPγS (Perkin Elmer Life and Analytical Sciences, Waltham USA) in the absence or presence of various ligands and incubated at RT for 90 min. Nonspecific binding was determined in the presence of 100 μM GTPγS and was always less than 0.2% of total binding. All the results presented are means of several independent experiments and analyzed by non-linear regression methods using commercially available program Prism (GraphPad, San Diego, Calif.).
Sequence (P35414 whole entry): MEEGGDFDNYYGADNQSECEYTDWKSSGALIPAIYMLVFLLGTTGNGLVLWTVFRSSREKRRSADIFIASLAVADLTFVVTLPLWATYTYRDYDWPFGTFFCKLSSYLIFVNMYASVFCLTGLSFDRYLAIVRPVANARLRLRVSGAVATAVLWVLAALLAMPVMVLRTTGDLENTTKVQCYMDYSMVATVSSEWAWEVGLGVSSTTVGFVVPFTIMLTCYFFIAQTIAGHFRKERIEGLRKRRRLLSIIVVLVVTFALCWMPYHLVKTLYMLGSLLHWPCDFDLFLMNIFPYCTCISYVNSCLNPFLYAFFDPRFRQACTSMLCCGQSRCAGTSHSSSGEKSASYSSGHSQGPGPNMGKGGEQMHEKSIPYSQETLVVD
Readings of EC50 for the listed compounds
Write down the numeric answer in nM and omit the unit.

COc1ncnc(OC)c1-n1c(NS(=O)(=O)[C@@H](C)[C@H](C)c2ncc(Cl)cn2)nnc1C1COC1    730
COc1cccc(OC)c1-n1c(NS(=O)(=O)[C@@H](C)[C@@H](OC(C)C)c2ncc(C)cn2)nnc1[C@H]1COCCO1    16

// switching to the query compound
Entry CO[C@H]1CCC[C@@H](OC)[C@@H]1n1c(NS(=O)(=O)[C@@H](C)[C@H](C)c2ncc(C)cn2)nnc1C1CCCO1 (single isomer, unassigned) ; EC50 = 240
